# Tested on: Plasmodium falciparum
# assay name: Antimalarial activity against multi drug-resistant Plasmodium falciparum K1 infected in human erythrocytes assessed as inhibition of [G-3H]hypoxanthine uptake preincubated for 24 hrs followed by [G-3H]hypoxanthine addition and measured after 18 hrs by scintillation counting method
# Type: functional, organism-based
test readout: IC50 (nM)
Numbers only, in nM.

Worked cases, answers included:
- smiles record: "CO[C@H]1[C@H](O)C=C2C(=O)c3c(O)cc(C)c(-c4c(C)cc(O)c5c4O[C@]4(C)C(=CC[C@H](OC)[C@H]4O)C5=O)c3O[C@@]2(C)[C@@H]1O"
  experimental value: 1700
- smiles record: "CO[C@H]1CC=C2C(=O)c3c(O)cc(C)c(-c4c(C)cc(O)c5c4O[C@]4(C)C(=CC[C@H](OC)[C@H]4O)C5=O)c3O[C@@]2(C)[C@@H]1O"
  experimental value: 900
- smiles record: "CO[C@H]1CC=C2C(=O)c3c(O)cc(C)c(-c4c(C)cc(O)c5c4O[C@]4(C)C(=CC(=O)[C@H](OC)[C@H]4O)C5=O)c3O[C@@]2(C)[C@@H]1O"
  experimental value: 6100

I have this compound here, CO[C@H]1CC=C2C(=O)c3c(cc(C)c(-c4c(C)cc5c(c4O)C(=O)C4=CC[C@H](OC)[C@@H](O)[C@]4(C)O5)c3O)O[C@@]2(C)[C@@H]1O , and I need its recorded IC50.
1000

====

# System: NCI-H187
# assay name: cells
# run conditions: Homo sapiens
# Description: Cytotoxicity against human NCI-H187 cells assessed as reduction in cell viability by resazurin based fluorescence assay
test readout: IC50 (µM)
Give bare numbers, in µM.

Worked cases, answers included:
- compound: "CO[C@H]1[C@H](O)C=C2C(=O)c3c(cc(C)c(-c4c(C)cc5c(c4O)C(=O)C4=CC[C@H](OC)[C@@H](O)[C@]4(C)O5)c3O)O[C@@]2(C)[C@@H]1O"
  test readout: "IC50"
  experimental value: 1
- compound: "CO[C@H]1CC=C2C(=O)c3c(cc(C)c(-c4c(C)cc5c(c4O)C(=O)C4=CC[C@H](OC)[C@@H](O)[C@]4(C)O5)c3O)O[C@@]2(C)[C@@H]1O [ASCHERXANTHONE A]"
  test readout: "IC50"
  experimental value: 0.5
- compound: "Cc1c2ccncc2c(C)c2c1[nH]c1ccccc12 [ELLIPTECINE]"
  test readout: "IC50"
  experimental value: 9.1
- compound: "CO[C@H]1CC=C2C(=O)c3c(cc(C)c(-c4c(C)cc5c(c4O)C(=O)C4=CC[C@H](OC)[C@H](OC(C)=O)[C@]4(C)O5)c3O)O[C@@]2(C)[C@@H]1O"
  test readout: "IC50"
  experimental value: 1
- compound: "CO[C@H]1CC=C2C(=O)c3c(O)cc(C)c(-c4c(C)cc(O)c5c4O[C@]4(C)C(=CC(=O)[C@H](OC)[C@H]4O)C5=O)c3O[C@@]2(C)[C@@H]1O"
  test readout: "IC50"
  experimental value: 1.7

I have this compound here, CO[C@H]1CC=C2C(=O)c3c(O)cc(C)c(-c4c(C)cc(O)c5c4O[C@]4(C)C(=CC[C@H](OC)[C@H]4O)C5=O)c3O[C@@]2(C)[C@@H]1O , and I need its recorded IC50.
0.8

====

# Test system: Plasmodium falciparum
# assay name: Antimalarial activity against multi drug-resistant Plasmodium falciparum K1 infected in human erythrocytes assessed as inhibition of [G-3H]hypoxanthine uptake preincubated for 24 hrs followed by [G-3H]hypoxanthine addition and measured after 18 hrs by scintillation counting method
# Format: functional, organism-based
pIC50: −log10 of the molar value.
Criterion: pIC50 meeting or surpassing 6. Met: Condition met. Not met: Condition not met.

Take a look at these entries with their results.
- compound: "CO[C@H]1[C@H](O)C=C2C(=O)c3c(cc(C)c(-c4c(C)cc5c(c4O)C(=O)C4=CC[C@H](OC)[C@@H](O)[C@]4(C)O5)c3O)O[C@@]2(C)[C@@H]1O"
  cat: "Condition met"
- compound: "COC1=C[C@]2(C)Oc3c(c(O)cc(C)c3-c3c(C)cc(O)c4c3O[C@]3(C)C(=CC[C@H](OC)[C@H]3O)C4=O)C(=O)[C@@H]2CC1=O"
  cat: "Condition not met"
- compound: "CO[C@H]1CC=C2C(=O)c3c(O)cc(C)c(-c4c(C)cc(O)c5c4O[C@]4(C)C(=CC[C@H](OC)[C@@H]4O)C5=O)c3O[C@@]2(C)[C@@H]1O"
  cat: "Condition not met"

Please find the next compound below.
Please indicate if the recorded pIC50 for O[C@@H](c1cc(C(F)(F)F)nc2c(C(F)(F)F)cccc12)[C@H]1CCCCN1 [(S,R)-MEFLOQUINE] meets or exceeds 6.
Condition met

====

Kindly state IC50 for each of the entries shown.
# Tested on: NCI-H187
# assay name: cells
# run conditions: Homo sapiens
Answers are plain numbers, in nM.

- smiles record: "CO[C@H]1[C@H](O)C=C2C(=O)c3c(O)cc(C)c(-c4c(C)cc(O)c5c4O[C@]4(C)C(=CC[C@H](OC)[C@H]4O)C5=O)c3O[C@@]2(C)[C@@H]1O"
  IC50 (nM): 1000
- smiles record: "COC1=C[C@]2(C)Oc3c(c(O)cc(C)c3-c3c(C)cc(O)c4c3O[C@]3(C)C(=CC[C@H](OC)[C@H]3O)C4=O)C(=O)[C@@H]2CC1=O"
  IC50 (nM): 3500

Quick request: IC50 for each listed item, please.
1. CO[C@H]1CC=C2C(=O)c3c(cc(C)c(-c4c(C)cc5c(c4O)C(=O)C4=CC[C@H](OC)[C@H](O)[C@]4(C)O5)c3O)O[C@@]2(C)[C@@H]1O
2. CO[C@H]1CC=C2C(=O)c3c(O)cc(C)c(-c4c(C)cc(O)c5c4O[C@]4(C)C(=CC[C@H](OC)[C@@H]4O)C5=O)c3O[C@@]2(C)[C@@H]1O

1: 1200; 2: 2800
